System: cytochrome c
Assay type: cell-based, mouse
property.measured: cyt c

1. COP(=S)(OC)Oc1ccc([N+](=O)[O-])cc1 [methyl parathione]
0.414
2. CCOC(=O)N1CCC(=C2c3ccc(Cl)cc3CCc3cccnc32)CC1 [loratadine]
−0.317
3. C[N+]1(C)CCC(OC(=O)C(O)(c2ccccc2)C2CCCC2)C1 (stereo not drawn) [glycopyrrolate]
0.260
4. CCCSc1ccc2nc(NC(=O)OC)[nH]c2c1 [albendazole, reference compound]
−0.280
5. Cc1c(N(C)CS(=O)(=O)[O-])c(=O)n(-c2ccccc2)n1C.[Na+] [dipyrone]
0.356
6. C[N+](C)(C)CCCCCC[N+](C)(C)C [hexamethonium bromide]
−0.284
7. C[N+](C)(C)CC(=O)O [betaine]
−0.998
8. c1ccc(-c2ccc(C(c3ccccc3)n3ccnc3)cc2)cc1 (stereo not drawn) [bifonazole]
0.179
9. C[C@]12C[C@H](O)[C@H]3[C@@H](CCC4=CC(=O)CC[C@@]43C)[C@@H]1CC[C@@H]2C(=O)CO [corticosterone]
−0.379
